# assayedTarget: Jak3 (Homo sapiens, UniProt P52333)
# Construct: Jak3 enzyme (aa 811-1103); GST
# Sequence (P52333 811-1103): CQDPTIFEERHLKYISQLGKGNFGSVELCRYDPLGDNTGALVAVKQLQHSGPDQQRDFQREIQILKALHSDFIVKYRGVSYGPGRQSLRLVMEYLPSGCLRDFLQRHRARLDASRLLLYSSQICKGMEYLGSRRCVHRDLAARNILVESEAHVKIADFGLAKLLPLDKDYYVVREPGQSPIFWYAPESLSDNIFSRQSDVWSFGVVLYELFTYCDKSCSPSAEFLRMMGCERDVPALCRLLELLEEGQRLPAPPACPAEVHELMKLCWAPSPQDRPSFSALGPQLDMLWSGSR
# methodSummary: Jak3 enzyme data for selected compounds
pIC50: −log10 of the molar value.
Measured pIC50 accompanies every entry in the list below.
quantity: pIC50

{"compound": "CC[C@@H]1C[C@H](NS(=O)(=O)CCC(F)(F)F)C[C@@H]1c1cnc2cnc3[nH]ccc3n12 (single isomer, unassigned) [AA.1.77]", "quantity": "pIC50", "endpointValue": "> 7.00"}
{"compound": "C[C@@H]1C[C@H](Nc2cnc(C#N)cn2)C[C@@H]1c1cnc2cnc3[nH]ccc3n12 (single isomer, unassigned) [AA.1.16]", "quantity": "pIC50", "endpointValue": "6.00 to 7.00"}
{"compound": "CC[C@@H]1C[C@H](NS(=O)(=O)C2(CC)CC2)C[C@@H]1c1nnc2cnc3[nH]ccc3n12 [D.1.82]", "quantity": "pIC50", "endpointValue": "6.00 to 7.00"}

###

# assayedTarget: Jak3 (Homo sapiens, UniProt P52333)
# Construct: Jak3 enzyme (aa 811-1103); GST
# methodSummary: Jak3 enzyme data for selected compounds
pIC50: −log10 of the molar value.

{"compound": "C[C@@H]1CCN(C(=O)CCc2cc(Cl)no2)C[C@@H]1c1ncc2cnc3[nH]ccc3n12", "pIC50": "> 7.00"}
{"compound": "CC[C@@H]1C[C@H](NS(=O)(=O)N2CC(C#N)C2)C[C@@H]1c1nnc2cnc3[nH]ccc3n12", "pIC50": "6.00 to 7.00"}
{"compound": "CC[C@@H]1C[C@@H](O)C[C@@H]1c1nnc2cnc3[nH]ccc3n12 (single isomer, unassigned)", "pIC50": "< 6.00"}
{"compound": "CC[C@@H]1C[C@H](NS(=O)(=O)C2CC2)C[C@@H]1c1nc(CCCO)c2cnc3[nH]ccc3n12", "pIC50": "> 7.00"}
{"compound": "O=S(=O)(NC12CCC(c3cnc4cnc5[nH]ccc5n34)(CC1)CC2)C1CC1", "pIC50": "6.00 to 7.00"}
{"compound": "N#C[C@H]1CCN(C(=O)N2CCC[C@@H](c3ncc4cnc5[nH]ccc5n34)C2)C1", "pIC50": "> 7.00"}
{"compound": "c1cc2c(ncc3ncn(C4CCCCC4)c32)[nH]1", "pIC50": "6.00 to 7.00"}
{"compound": "CC[C@@H]1C[C@H](NS(=O)(=O)CC(F)(F)F)C[C@@H]1c1nnc2cnc3[nH]ccc3n12", "pIC50": "> 7.00"}

###

# assayedTarget: Jak3 (Homo sapiens)
# Construct: Jak3 enzyme (aa 811-1103); GST
# methodSummary: Jak3 enzyme data for selected compounds
Entries annotated with measured IC50

{"compound": "CC[C@@H]1C[C@@H](OC2CCOCC2)C[C@@H]1c1nnc2cnc3[nH]ccc3n12 (single isomer, unassigned)", "assayedTarget": "Jak3 (Homo sapiens)", "IC50": "0.1 to 1 µM"}
{"compound": "C[C@@H]1CCN(C(=O)N2CCC[C@@H]2C#N)C[C@@H]1c1ncc2cnc3[nH]ccc3n12", "assayedTarget": "Jak3 (Homo sapiens)", "IC50": "< 0.1 µM"}
{"compound": "O=C(C1CC(F)(F)C1)N1CCC[C@@H](c2cnc3cnc4[nH]ccc4n23)C1", "assayedTarget": "Jak3 (Homo sapiens)", "IC50": "< 0.1 µM"}
{"compound": "CC1(C)CCN(C(=O)N2CCC[C@@H](c3ncc4cnc5[nH]ccc5n34)C2)CC1", "assayedTarget": "Jak3 (Homo sapiens)", "IC50": "< 0.1 µM"}
{"compound": "O=S(=O)(CCC(F)(F)F)N1CCN(c2ncc3cnc4[nH]ccc4n23)CC(F)C1 (centres unmarked)", "assayedTarget": "Jak3 (Homo sapiens)", "IC50": "> 1 µM"}
{"compound": "C[C@@H]1C[C@H](OCC2CC2)C[C@@H]1c1nnc2cnc3[nH]ccc3n12", "assayedTarget": "Jak3 (Homo sapiens)", "IC50": "> 1 µM"}
{"compound": "CC[C@@H]1C[C@@H](OCc2ccc(C#N)cc2)C[C@@H]1c1nnc2cnc3[nH]ccc3n12 (single isomer, unassigned)", "assayedTarget": "Jak3 (Homo sapiens)", "IC50": "< 0.1 µM"}
{"compound": "c1cc2c3c(cnc2[nH]1)CCCN3C1CCCCC1", "assayedTarget": "Jak3 (Homo sapiens)", "IC50": "> 1 µM"}
{"compound": "C[C@@H]1CCN(C(=O)N2CCC[C@@H]2CO)C[C@@H]1c1ncc2cnc3[nH]ccc3n12", "assayedTarget": "Jak3 (Homo sapiens)", "IC50": "< 0.1 µM"}
{"compound": "C[C@@H]1CCN(C(=O)N2CCC[C@H]2C)C[C@@H]1c1ncc2cnc3[nH]ccc3n12", "assayedTarget": "Jak3 (Homo sapiens)", "IC50": "< 0.1 µM"}
{"compound": "CC[C@@H]1C[C@H](NS(=O)(=O)CCC(F)(F)F)CN1c1cnc2cnc3[nH]ccc3n12", "assayedTarget": "Jak3 (Homo sapiens)", "IC50": "< 0.1 µM"}
{"compound": "CC[C@@H]1C[C@H](Nc2cnc(C#N)cn2)C[C@@H]1c1nnc2cnc3[nH]ccc3n12", "assayedTarget": "Jak3 (Homo sapiens)", "IC50": "0.1 to 1 µM"}
{"compound": "C[C@H]1C[C@H](Oc2ccc(C#N)cc2)C[C@@H]1c1nnc2cnc3[nH]ccc3n12 (single isomer, unassigned)", "assayedTarget": "Jak3 (Homo sapiens)", "IC50": "0.1 to 1 µM"}
{"compound": "CC[C@H]1C[C@H](Oc2ccc(C(F)(F)F)cn2)C[C@H]1c1nnc2cnc3[nH]ccc3n12 (single isomer, unassigned)", "assayedTarget": "Jak3 (Homo sapiens)", "IC50": "> 1 µM"}
{"compound": "C[C@@H]1CCN(c2ncc(C#N)s2)C[C@@H]1c1ncc2cnc3[nH]ccc3n12 (single isomer, unassigned) [AA.1.11]", "assayedTarget": "Jak3 (Homo sapiens)", "IC50": "< 0.1 µM"}
{"compound": "O=C(N1CCC[C@@H](c2cnc3cnc4[nH]ccc4n23)C1)N1CCC[C@@H]1C(F)(F)F", "assayedTarget": "Jak3 (Homo sapiens)", "IC50": "0.1 to 1 µM"}
{"compound": "O=S(=O)(NC[C@H]1CC[C@@H](c2ncc3cnc4[nH]ccc4n23)C1)C1CC1 (single isomer, unassigned)", "assayedTarget": "Jak3 (Homo sapiens)", "IC50": "0.1 to 1 µM"}
{"compound": "C[C@@H]1C[C@H](NS(=O)(=O)C2(C)CC2)C[C@@H]1c1ncc2cnc3[nH]ccc3n12", "assayedTarget": "Jak3 (Homo sapiens)", "IC50": "0.1 to 1 µM"}
{"compound": "CC[C@@H]1C[C@H](NS(=O)(=O)NCCO)C[C@@H]1c1nnc2cnc3[nH]ccc3n12", "assayedTarget": "Jak3 (Homo sapiens)", "IC50": "0.1 to 1 µM"}
{"compound": "CC[C@@H]1C[C@H](NS(=O)(=O)c2ccc(F)c(Cl)c2)C[C@@H]1c1cnc2cnc3[nH]ccc3n12 (single isomer, unassigned)", "assayedTarget": "Jak3 (Homo sapiens)", "IC50": "< 0.1 µM"}
{"compound": "CC[C@H]1C[C@H](OCc2ccc(C#N)cc2)C[C@H]1c1nnc2cnc3[nH]ccc3n12 (single isomer, unassigned)", "assayedTarget": "Jak3 (Homo sapiens)", "IC50": "> 1 µM"}
{"compound": "CC[C@@H]1C[C@H](NS(=O)(=O)C2CC2)C[C@@H]1c1nnc2cnc3[nH]cc(C)c3n12", "assayedTarget": "Jak3 (Homo sapiens)", "IC50": "0.1 to 1 µM"}
{"compound": "C[C@@H]1CCN(C(=O)N2CC(F)(F)C2)C[C@@H]1c1ncc2cnc3[nH]ccc3n12", "assayedTarget": "Jak3 (Homo sapiens)", "IC50": "< 0.1 µM"}
{"compound": "CC[C@@H]1C[C@@H](Oc2ccc(C#N)cn2)C[C@@H]1c1nnc2cnc3[nH]ccc3n12 (single isomer, unassigned) [AA.1.29]", "assayedTarget": "Jak3 (Homo sapiens)", "IC50": "> 1 µM"}
{"compound": "O=S(=O)(NC12CCC(c3nnc4cnc5[nH]ccc5n34)(CC1)CC2)N1CC(F)(F)C1", "assayedTarget": "Jak3 (Homo sapiens)", "IC50": "0.1 to 1 µM"}
{"compound": "CC[C@H]1C[C@@H](NS(=O)(=O)C2CC2)C[C@H]1c1cnc2cnc3[nH]ccc3n12 (single isomer, unassigned)", "assayedTarget": "Jak3 (Homo sapiens)", "IC50": "< 0.1 µM"}
{"compound": "C[C@@H]1CCN(C(=O)C2CCS(=O)(=O)C2)C[C@@H]1c1ncc2cnc3[nH]ccc3n12 (mixture of isomers)", "assayedTarget": "Jak3 (Homo sapiens)", "IC50": "< 0.1 µM"}
{"compound": "C[C@@H]1CCN(C(=O)N2CC[C@@H](F)C2)C[C@@H]1c1ncc2cnc3[nH]ccc3n12", "assayedTarget": "Jak3 (Homo sapiens)", "IC50": "< 0.1 µM"}
{"compound": "CC[C@@H]1C[C@H](NS(=O)(=O)C2(C)CC2)C[C@@H]1c1nnc2cnc3[nH]ccc3n12", "assayedTarget": "Jak3 (Homo sapiens)", "IC50": "< 0.1 µM"}
